- assayOverview: Modulation of human utrophinA expressed in mouse H2K cells assessed as upregulation of utrophin production after 24 hrs by luciferase reporter gene assay
Lab note: cut-off is 200 nM. Strictly less in EC50 is TRUE. Exactly 200 nM or more is FALSE.

{"molecule": "CCP(=O)(OC)c1ccc2nc(-c3cnc4ccccc4c3)oc2c1 (stereo not given)", "answerLabel": "TRUE"}
{"molecule": "CCP(=O)(OC)c1ccc2oc(-c3ccc(Cl)c(Cl)c3)nc2c1 (stereo not given)", "answerLabel": "TRUE"}
{"molecule": "CCP(=O)(OC)c1ccc2oc(-c3ccc(F)cc3F)nc2c1 (stereo not given)", "answerLabel": "FALSE"}
{"molecule": "CCP(=O)(OC)c1ccc2nc(-c3ccc4ncccc4c3)oc2c1 (stereo not given)", "answerLabel": "TRUE"}
{"molecule": "CCP(=O)(OC)c1ccc2nc(-c3ccc(F)cc3F)oc2c1 (stereo not given)", "answerLabel": "FALSE"}
{"molecule": "CCP(=O)(OC)c1ccc2nc(-c3ccc4ccccc4c3)oc2c1 (stereo not given)", "answerLabel": "TRUE"}
{"molecule": "CCP(=O)(OC)c1ccc2oc(-c3ccc4ncccc4c3)nc2c1 (stereo not given)", "answerLabel": "TRUE"}
{"molecule": "CCP(=O)(OC)c1ccc2oc(-c3ccccc3C(F)(F)F)nc2c1 (stereo not given)", "answerLabel": "FALSE"}
{"molecule": "COP(=O)(c1ccc2oc(-c3ccc4ccccc4c3)nc2c1)C(C)(C)C (stereo not given)", "answerLabel": "TRUE"}
{"molecule": "CNS(=O)(=O)c1ccc2oc(-c3ccc4ccccc4c3)nc2c1", "answerLabel": "TRUE"}
{"molecule": "CCP(=O)(OC)c1ccc2nc(-c3cccc(Cl)c3Cl)oc2c1 (stereo not given)", "answerLabel": "FALSE"}
{"molecule": "CCP(=O)(OC)c1ccc2oc(-c3ccc(Cl)s3)nc2c1 (stereo not given)", "answerLabel": "TRUE"}
{"molecule": "CCP(=O)(OC)c1ccc2oc(/C=C/c3ccccc3)nc2c1 (stereo not given)", "answerLabel": "TRUE"}
{"molecule": "CCP(=O)(OC)c1ccc2oc(-c3ccc4ccccc4c3)nc2c1 (stereo not given)", "answerLabel": "TRUE"}
{"molecule": "CCP(=O)(OC)c1ccc2oc(-c3ccc4ccncc4c3)nc2c1 (stereo not given)", "answerLabel": "FALSE"}
{"molecule": "CCP(=O)(OC)c1ccc2nc(-c3ccc(F)cc3)oc2c1 (stereo not given)", "answerLabel": "FALSE"}
{"molecule": "CCP(=O)(OC)c1ccc2oc(-c3ccc4cccnc4c3)nc2c1 (stereo not given)", "answerLabel": "TRUE"}
{"molecule": "CCP(=O)(OC)c1cccc2oc(-c3ccc(F)cc3)nc12 (stereo not given)", "answerLabel": "FALSE"}
{"molecule": "CCP(=O)(OC)c1ccc2oc(-c3c(F)ccc(Cl)c3F)nc2c1 (stereo not given)", "answerLabel": "FALSE"}
{"molecule": "CCP(=O)(OC)c1ccc2oc(-c3ccc(Cl)cc3)nc2c1 (stereo not given)", "answerLabel": "TRUE"}
{"molecule": "CCP(=O)(OC)c1ccc2nc(-c3ccc4ccncc4c3)oc2c1 (stereo not given)", "answerLabel": "FALSE"}
{"molecule": "CCP(=O)(OC)c1ccc2oc(-c3sccc3Cl)nc2c1 (stereo not given)", "answerLabel": "FALSE"}
{"molecule": "CCP(=O)(OC)c1ccc2nc(-c3ccc4cccnc4c3)oc2c1 (stereo not given)", "answerLabel": "FALSE"}
{"molecule": "CCP(=O)(OC)c1ccc2oc(-c3cccc(F)c3)nc2c1 (stereo not given)", "answerLabel": "FALSE"}
{"molecule": "O=S1(=O)CCCN1c1ccc2oc(-c3ccc4ccccc4c3)nc2c1", "answerLabel": "TRUE"}
{"molecule": "COP(=O)(c1ccc2oc(-c3ccc4ccccc4c3)nc2c1)C(C)C (stereo not given)", "answerLabel": "TRUE"}
{"molecule": "CCP(=O)(OC)c1ccc2oc(-c3cccc(Cl)c3Cl)nc2c1 (stereo not given)", "answerLabel": "FALSE"}
{"molecule": "COP(=O)(c1ccc2nc(-c3ccc(F)cc3)oc2c1)C(C)C (stereo not given)", "answerLabel": "FALSE"}
{"molecule": "CCOP(=O)(CC)c1ccc2oc(-c3ccc(F)cc3)nc2c1 (stereo not given)", "answerLabel": "FALSE"}
{"molecule": "CCOP(=O)(CC)c1ccc2nc(-c3ccc4ccccc4c3)oc2c1 (stereo not given)", "answerLabel": "TRUE"}
{"molecule": "CCP(=O)(OC)c1ccc2nc(/C=C/c3ccccc3)oc2c1 (stereo not given)", "answerLabel": "FALSE"}
{"molecule": "CCP(=O)(OC)c1ccc2oc(-c3ccc(C(F)(F)F)o3)nc2c1 (stereo not given)", "answerLabel": "FALSE"}
{"molecule": "COP(=O)(c1ccc2oc(-c3ccc(F)cc3)nc2c1)C(C)C (stereo not given)", "answerLabel": "FALSE"}
{"molecule": "CCS(=O)(=O)c1ccc2oc(-c3ccc4ccccc4c3)nc2c1 [BMN 195]", "answerLabel": "TRUE"}
{"molecule": "CCP(=O)(OC)c1ccc2nc(-c3ccc4cnccc4c3)oc2c1 (stereo not given)", "answerLabel": "FALSE"}
{"molecule": "CCP(=O)(OC)c1ccc2oc(-c3ccc4cnccc4c3)nc2c1 (stereo not given)", "answerLabel": "FALSE"}
{"molecule": "CCP(=O)(OC)c1ccc2nc(-c3cccc(F)c3)oc2c1 (stereo not given)", "answerLabel": "FALSE"}
{"molecule": "CC(C)C(=O)Nc1ccc2oc(-c3ccc4ccccc4c3)nc2c1", "answerLabel": "TRUE"}
{"molecule": "CCP(=O)(OC)c1ccc2oc(-c3cnc4ccccc4c3)nc2c1 (stereo not given)", "answerLabel": "TRUE"}
{"molecule": "COP(=O)(c1ccc2nc(-c3ccc4ccccc4c3)oc2c1)C(C)C (stereo not given)", "answerLabel": "FALSE"}
{"molecule": "CCP(=O)(OC)c1ccc2oc(-c3ccc(C(F)(F)F)cc3)nc2c1 (stereo not given)", "answerLabel": "FALSE"}
{"molecule": "CCOP(=O)(CC)c1ccc2oc(-c3ccc4ccccc4c3)nc2c1 (stereo not given)", "answerLabel": "TRUE"}
{"molecule": "COP(=O)(c1ccccc1)c1ccc2oc(-c3ccc(F)cc3)nc2c1 (stereo not given)", "answerLabel": "FALSE"}
{"molecule": "CC(=O)Nc1ccc2oc(-c3ccc4ccccc4c3)nc2c1", "answerLabel": "TRUE"}
